- subject.of.test: EGFR L858R/C797S (Homo sapiens, UniProt P00533, C797S/L858R)
- Sequence (P00533 25-1210 C797S/L858R): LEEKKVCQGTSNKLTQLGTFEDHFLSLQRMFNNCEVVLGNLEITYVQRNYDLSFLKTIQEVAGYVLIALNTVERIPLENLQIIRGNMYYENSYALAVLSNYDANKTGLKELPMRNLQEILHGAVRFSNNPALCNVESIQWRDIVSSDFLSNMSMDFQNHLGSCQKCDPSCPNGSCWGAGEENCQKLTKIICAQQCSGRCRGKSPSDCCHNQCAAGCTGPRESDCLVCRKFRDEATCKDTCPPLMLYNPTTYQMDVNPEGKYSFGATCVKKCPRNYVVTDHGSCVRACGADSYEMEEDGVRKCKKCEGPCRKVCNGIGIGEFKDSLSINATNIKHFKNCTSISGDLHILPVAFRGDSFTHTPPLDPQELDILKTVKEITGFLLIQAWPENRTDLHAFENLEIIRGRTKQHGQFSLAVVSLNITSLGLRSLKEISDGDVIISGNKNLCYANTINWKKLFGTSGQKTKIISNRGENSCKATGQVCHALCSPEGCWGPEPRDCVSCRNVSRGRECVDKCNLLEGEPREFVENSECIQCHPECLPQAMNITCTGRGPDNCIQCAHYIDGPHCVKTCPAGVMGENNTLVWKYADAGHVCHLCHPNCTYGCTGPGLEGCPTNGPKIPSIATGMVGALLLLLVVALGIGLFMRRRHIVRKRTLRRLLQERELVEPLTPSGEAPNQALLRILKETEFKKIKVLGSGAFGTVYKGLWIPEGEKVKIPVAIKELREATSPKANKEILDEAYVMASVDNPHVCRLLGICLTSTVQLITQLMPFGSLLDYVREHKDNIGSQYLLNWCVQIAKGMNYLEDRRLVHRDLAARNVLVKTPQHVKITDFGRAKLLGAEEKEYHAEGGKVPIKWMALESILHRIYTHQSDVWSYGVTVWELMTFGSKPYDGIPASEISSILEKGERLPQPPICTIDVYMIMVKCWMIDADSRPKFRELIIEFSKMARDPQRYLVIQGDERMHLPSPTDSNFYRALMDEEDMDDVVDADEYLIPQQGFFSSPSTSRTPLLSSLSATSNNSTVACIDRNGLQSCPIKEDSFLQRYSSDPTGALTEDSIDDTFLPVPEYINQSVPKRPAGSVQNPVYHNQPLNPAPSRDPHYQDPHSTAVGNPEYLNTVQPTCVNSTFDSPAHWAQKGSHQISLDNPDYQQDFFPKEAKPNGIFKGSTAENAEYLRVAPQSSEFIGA
- protocol: Biochemical EGFR kinase assay (Lance Ultra TR-FRET), double mutant L858R/C797S
- condition.details: Km ATP; read-out: IC50 L858R/C797S (nM) Km ATP
measurement.type: IC50 (nM)

These solved cases illustrate the format of a correct answer.
Could you share what IC50 was measured for Cc1ccc(-c2cnc(Nc3ccnc(-c4cnn(S(=O)(=O)C5CC5)c4)n3)cc2N[C@H]2CC[C@@](C)(O)CC2)nc1 , tested on EGFR L858R/C797S (Homo sapiens, UniProt P00533, C797S/L858R)? 0.4

Under EGFR L858R/C797S (Homo sapiens, UniProt P00533, C797S/L858R): IC50 value of CC(C)Nc1cc(Nc2ccnc(-c3cnn(S(=O)(=O)C4CC4)c3)n2)ncc1-c1ccc(N2CCOCC2)cn1 ? 0.4

Form field - read-out: IC50; system: EGFR L858R/C797S (Homo sapiens, UniProt P00533, C797S/L858R); submitted item: COC1CN(c2ccc(-c3cnc(Nc4ccnc(-c5cnn(S(=O)(=O)C6CC6)c5)n4)cc3N[C@H]3CC[C@@](C)(O)CC3)nc2)C1 0.4

Look up IC50 with EGFR L858R/C797S (Homo sapiens, UniProt P00533, C797S/L858R) for this compound: CN1CCN(Cc2ccc(-c3cnc(Nc4ccnc(-c5cnn(S(=O)(=O)C6CC6)c5)n4)cc3N3CCC(C)(CO)CC3)nc2)CC1 10.5

Give recorded IC50 with EGFR L858R/C797S (Homo sapiens, UniProt P00533, C797S/L858R) for the following compound: CN(C)Cc1ccnc(-c2cnc(Nc3ccnc(-c4cnn(S(=O)(=O)C5CC5)c4)n3)cc2N[C@H]2CC[C@@](C)(O)CC2)c1 0.2

Checklist item: IC50 tested on EGFR L858R/C797S (Homo sapiens, UniProt P00533, C797S/L858R), entry CC1(O)CCC(Nc2cc(Nc3ccnc(-c4cnn(S(=O)(=O)C5CC5)c4)n3)ncc2-c2cnc(OC3CCOC3)cn2)CC1 (stereo not drawn) , value? 0.4

Tell me reported IC50 for CN(C)CCOc1cnc(-c2cnc(Nc3ccnc(-c4cnn(S(=O)(=O)C5CC5)c4)n3)cc2NC2CCC(C)(O)CC2)cn1 (stereo not drawn) , tested with EGFR L858R/C797S (Homo sapiens, UniProt P00533, C797S/L858R). 0.1

Observed IC50 on EGFR L858R/C797S (Homo sapiens, UniProt P00533, C797S/L858R) for CN1CCN(c2ccc(-c3cnc(Nc4ccnc(-c5cnn(S(=O)(=O)C6CC6)c5)n4)cc3N[C@H]3CC[C@@H](CO)CC3)nc2)CC1 , please. 0.1

Param readout= IC50; system= EGFR L858R/C797S (Homo sapiens, UniProt P00533, C797S/L858R); entry= CC(C)(O)[C@H]1CC[C@@H](Nc2cc(Nc3ccnc(-c4cnn(S(=O)(=O)C5CC5)c4)n3)ncc2-c2cnc(OC(F)F)cn2)CC1 ; returns value. 239

Which measured IC50 belongs to CC(C)(O)c1cnc(-c2cnc(Nc3ccnc(-c4cnn(S(=O)(=O)C5CC5)c4)n3)cc2N[C@H]2CC[C@@H](C(C)(C)O)CC2)cn1 , tested on EGFR L858R/C797S (Homo sapiens, UniProt P00533, C797S/L858R)? 0.1

I = CC(C)(O)c1ccc(-c2cnc(Nc3ccnc(-c4cnn(S(=O)(=O)C5CC5)c4)n3)cc2N[C@H]2CC[C@@H](CO)CC2)nn1
II = CC(C)(O)c1cnc(-c2cnc(Nc3ccnc(-c4cnn(S(=O)(=O)C5CC5)c4)n3)cc2N[C@H]2CC[C@@](C)(O)CC2)cn1
Of I and II , whose reported IC50 is numerically smaller? Select an item and report its label. II

P = CC(C)(O)[C@H]1CC[C@@H](Nc2cc(Nc3ccnc(-c4cnn(S(=O)(=O)C5CC5)c4)n3)ncc2-c2ccc(N3CCCC3)cn2)CC1
Q = C[C@]1(O)CC[C@@H](Nc2cc(Nc3ccnc(-c4cnn(S(=O)(=O)C5CC5)c4)n3)ncc2-c2ccc(F)cn2)CC1
R = CN1CCC(Oc2cnc(-c3cnc(Nc4ccnc(-c5cnn(S(=O)(=O)C6CC6)c5)n4)cc3N[C@H]3CC[C@@H](C(C)(C)O)CC3)cn2)CC1
S = CC(C)(O)c1ccnc(-c2cnc(Nc3ccnc(-c4cnn(S(=O)(=O)C5CC5)c4)n3)cc2N[C@H]2CC[C@@H](CO)CC2)c1
T = C[C@]1(O)CC[C@@H](Nc2cc(Nc3ccnc(-c4cnn(S(=O)(=O)C5CC5)c4)n3)ncc2-c2ccc(N3CCCC3)cn2)CC1
Rank ascending by IC50. Answer format: the labels, ordered as requested. S, R, Q, T, P
